- target: human recombinant serotonin (5-Hydroxytryptamine) 5-HT2A receptor (Homo sapiens)
- Construct: expressed in transfected cells; host or cells: CHO-K1 cells
- protocol: Serotonin 5-HT2A radioligand binding ([3H]Ketanserin)
- measurement-parameters: 1 h; read-out: Percent Inhibition of ligand binding Serotonin (1 μM ligand concentration) 5-HT2A
metric: inhibition at 1 µM (%)
Provide the reading as a plain figure in %.

COc1ccc(C#Cn2c3c(c4cc(Cl)ccc42)CCN(C)C3)cc1F [Compound 155] = 85
Cc1ccc2c(c1)c1c(n2CCC(=O)N2CCCCC2)CN(C)CC1 [Compound 43] = 69

Need inhibition at 1 µM of C/C(=C\n1c2c(c3cc(Cl)ccc31)CCN(C)C2C)c1ccc(Cl)cc1 (stereo not drawn) [Compound 99] , thanks.
86

---

- target: human recombinant histamine H1 receptor (Homo sapiens)
- Construct: expressed in transfected cells; host or cells: CHO cells
- protocol: Histamine H1 radioligand binding ([3H]Pyrilamine)
- measurement-parameters: 1 μM; read-out: Binding data (Percentage Inhibition) Histamine Binding (1 μM) H1
metric: inhibition at 1 µM
Returns: string containing the number followed by the unit.

These recorded examples may help you get a feel for the data.
COC(=O)Cn1c2c(c3cc(Cl)ccc31)CCN(C)C2 = 5%
Cc1ccc2c(c1)c1c(n2C#Cc2ccc(Cl)cc2)C(C)N(C)CC1 (centres unmarked) = 11%
CCC1c2c(c3cc(Cl)ccc3n2C#Cc2ccc(F)cc2)CCN1C (centres unmarked) = 8%
Cc1ccc2c(c1)c1c(n2CCC(=O)N2CCCCC2)CN(C)CC1 = 30%

Could you now consider this next compound?
Which measured inhibition at 1 µM value corresponds to C/C(=C\n1c2c(c3cc(C)ccc31)CCN(C)C2C)c1ccc(Cl)cc1Cl (centres unmarked) ?
44%

---

Below, each entry is listed with its recorded inhibition at 1 µM.
- target: human recombinant serotonin (5-Hydroxytryptamine) 5-HT6 receptor (Homo sapiens)
- Construct: expressed in transfected cells; host or cells: human HeLa cells
- Sequence (P50406 whole entry): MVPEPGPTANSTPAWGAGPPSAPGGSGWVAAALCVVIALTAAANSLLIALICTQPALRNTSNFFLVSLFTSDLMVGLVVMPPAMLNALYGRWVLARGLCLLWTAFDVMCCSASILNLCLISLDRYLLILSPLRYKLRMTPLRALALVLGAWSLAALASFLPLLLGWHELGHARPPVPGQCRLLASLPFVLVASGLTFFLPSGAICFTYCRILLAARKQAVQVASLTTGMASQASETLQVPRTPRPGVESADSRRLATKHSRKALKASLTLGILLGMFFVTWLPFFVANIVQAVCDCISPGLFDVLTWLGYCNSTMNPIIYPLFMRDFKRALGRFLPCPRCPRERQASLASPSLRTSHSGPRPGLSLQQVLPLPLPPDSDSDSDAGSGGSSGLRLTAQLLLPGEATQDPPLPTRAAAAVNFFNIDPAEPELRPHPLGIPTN
- protocol: Serotonin 5-HT6 radioligand binding ([3H]LSD)
- measurement-parameters: 2 h; read-out: Percent Inhibition of ligand binding Serotonin (1 μM ligand concentration) 5-HT6
Give just the numeric value; % need not be written.

CCC1c2c(c3cc(Cl)ccc3n2C(=O)Cc2ccc(F)cc2)CCN1C (stereo not drawn) = 36
COc1ccc(C#Cn2c3c(c4cc(Cl)ccc42)CCN(C)C3)cc1F = 14

Quick one: inhibition at 1 µM for `CC(C)CCN(C)C(=O)Cn1c2c(c3cc(Cl)ccc31)CCN(C)C2` ?
12

---

- target: human recombinant histamine H1 receptor (Homo sapiens, UniProt P35367)
- Construct: expressed in transfected cells; host or cells: CHO cells
- Sequence (P35367 whole entry): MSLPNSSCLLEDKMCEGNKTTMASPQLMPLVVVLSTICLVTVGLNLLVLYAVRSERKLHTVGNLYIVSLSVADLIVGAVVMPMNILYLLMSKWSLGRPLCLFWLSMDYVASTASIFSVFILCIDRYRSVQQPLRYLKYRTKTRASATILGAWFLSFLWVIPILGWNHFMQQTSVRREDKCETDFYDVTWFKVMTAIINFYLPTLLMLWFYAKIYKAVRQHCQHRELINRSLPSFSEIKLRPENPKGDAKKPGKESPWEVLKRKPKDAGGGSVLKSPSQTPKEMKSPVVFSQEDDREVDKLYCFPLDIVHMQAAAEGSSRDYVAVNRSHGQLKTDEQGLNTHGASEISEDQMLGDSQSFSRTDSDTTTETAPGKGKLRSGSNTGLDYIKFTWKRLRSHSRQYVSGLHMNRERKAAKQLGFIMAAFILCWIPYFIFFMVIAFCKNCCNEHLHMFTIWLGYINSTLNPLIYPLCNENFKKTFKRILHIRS
- protocol: Histamine H1 radioligand binding ([3H]Pyrilamine)
- measurement-parameters: 1 μM; read-out: Binding data (Percentage Inhibition) Histamine Binding (1 μM) H1
- Procedure: To evaluate in radioligand binding assays the activity of compounds of the invention, human recombinant histamine H1 receptor expressed in Chinese hamster ovary (CHO) cells (De Backer, M. D. et al., Biochem. Biophys. Res. Comm. 197(3):1601, 1993) in a modified Tris-HCl buffer (50 mM Tris-HCl, pH 7.4, 2 mM MgCl2, 100 mM NaCl, 250 mM Sucrose) was used. […] Receptor proteins were filtered and washed, the filters were then counted to determine [^3H]Pyrilamine specifically bound. […]
Measured inhibition at 1 µM by item
Quick note: give the figure in %, leave out the unit.

Cc1ccc2c(c1)c1c(n2C(=O)Cc2ccc(Cl)cc2)CN(C)CC1 = 12
CC1c2c(c3cc(Cl)ccc3n2C#Cc2ccc(Cl)cc2)CCN1C (stereo not drawn) = 14
Cc1ccc2c(c1)c1c(n2CCc2ccc(C(F)(F)F)nc2)CN(C)CC1 = 35
Cc1ccc2c(c1)c1c(n2C(=O)Cc2ccc(Cl)cc2)C(c2ccccc2)N(C)CC1 (stereo not drawn) = 13
C/C(=C\n1c2c(c3cc(C)ccc31)CCN(C)C2C)c1ccccc1F (stereo not drawn) = 79
CCC1c2c(c3cc(C)ccc3n2C#Cc2ccc(Cl)cc2)CCN1C (stereo not drawn) = 15
Cc1ccc2c(c1)c1c(n2CC(=O)N2CCCCC2)CN(C)CC1 = 0
C/C(=C\n1c2c(c3cc(C)ccc31)CCN(C)C2)c1ccc(F)cc1 = 28

# query: inhibition at 1 µM of entry CCC1c2c(c3cc(Cl)ccc3n2/C=C(\C)c2ccc(Cl)cc2)CCN1C (stereo not drawn)
33

What inhibition at 1 µM value was documented for this molecule, `Cc1ccc2c(c1)c1c(n2CCc2ccc(C)nc2)CN(C)CC1` ?
77

If you can, please state the reported inhibition at 1 µM value of `CN1CCc2c(n(CCCc3ccccc3)c3ccc(Cl)cc23)C1` .
98

---

# inhibition at 1 µM listing for each entry below
- target: human recombinant serotonin (5-Hydroxytryptamine) 5-HT2A receptor (Homo sapiens, UniProt P28223)
- Construct: expressed in transfected cells; host or cells: CHO-K1 cells
- Sequence (P28223 whole entry): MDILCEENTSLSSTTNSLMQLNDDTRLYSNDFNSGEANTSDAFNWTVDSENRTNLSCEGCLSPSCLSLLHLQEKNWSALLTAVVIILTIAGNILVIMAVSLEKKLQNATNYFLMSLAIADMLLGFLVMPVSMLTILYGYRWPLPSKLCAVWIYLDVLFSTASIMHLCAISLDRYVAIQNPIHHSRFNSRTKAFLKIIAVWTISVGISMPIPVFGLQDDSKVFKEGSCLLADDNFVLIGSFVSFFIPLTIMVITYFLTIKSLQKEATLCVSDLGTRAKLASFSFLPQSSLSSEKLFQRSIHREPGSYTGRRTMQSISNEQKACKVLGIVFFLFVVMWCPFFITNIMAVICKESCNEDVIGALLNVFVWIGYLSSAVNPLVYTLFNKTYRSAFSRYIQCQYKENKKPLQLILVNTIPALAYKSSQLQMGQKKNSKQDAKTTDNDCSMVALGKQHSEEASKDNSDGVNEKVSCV
- protocol: Serotonin 5-HT2A radioligand binding ([3H]Ketanserin)
- measurement-parameters: compound concentration 1 μM; read-out: Percentage inhibition of ligand binding to 5-HT2A receptor
Please respond with the number in % and leave the unit unwritten.

Some solved cases for reference:
C/C(=C\n1c2c(c3cc(C)ccc31)CCN(C)C2C)c1ccccc1F (stereo not shown) [Compound 166] = 102
Cc1ccc2c(c1)c1c(n2/C=C/c2ccccc2)CN(C)CC1 [Compound 92] = 97
C/C(=C\n1c2c(c3cc(Cl)ccc31)CCN(C)C2)c1ccc(F)cc1 [Compound 90] = 97

Lab note: next compound to report on.
State the recorded inhibition at 1 µM for this entry: C/C(=C\n1c2c(c3cc(C)ccc31)CCN(C)C2)c1ccc(F)cc1 [Compound 91]
97

---

- target: human recombinant adrenergic α2A receptor (Homo sapiens, UniProt P08913)
- Construct: expressed in transfected cells; host or cells: insect Sf9 cells
- Sequence (P08913 whole entry): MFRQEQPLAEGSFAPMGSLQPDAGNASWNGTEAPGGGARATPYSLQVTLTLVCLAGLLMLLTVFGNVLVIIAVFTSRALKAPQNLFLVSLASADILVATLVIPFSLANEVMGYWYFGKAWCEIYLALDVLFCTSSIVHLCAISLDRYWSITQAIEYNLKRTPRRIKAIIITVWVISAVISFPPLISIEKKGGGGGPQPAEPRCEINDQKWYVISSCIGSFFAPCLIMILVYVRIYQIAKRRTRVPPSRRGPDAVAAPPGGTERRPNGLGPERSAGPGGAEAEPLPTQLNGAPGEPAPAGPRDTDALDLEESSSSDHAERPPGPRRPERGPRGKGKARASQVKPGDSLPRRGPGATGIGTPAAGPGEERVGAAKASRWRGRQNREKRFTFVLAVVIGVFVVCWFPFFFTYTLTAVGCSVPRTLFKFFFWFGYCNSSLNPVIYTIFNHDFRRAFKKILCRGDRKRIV
- protocol: Adrenergic α2A radioligand binding ([3H]MK-912)
- measurement-parameters: 1 h; read-out: Percent Inhibition of ligand binding Adrenergic (1 μM ligand conc.) α2A
metric: inhibition at 1 µM (%)
Return type: number; implicit unit %.

Cc1ccc2c(c1)c1c(n2CC(=O)O)CN(C)CC1 = 5
COc1ccc(C(O)Cn2c3c(c4cc(Cl)ccc42)CCN(C)C3)cc1OC (centres unmarked) = 81
C/C(=C\n1c2c(c3cc(Cl)ccc31)CCN(C)C2)c1ccc(Cl)cc1 = 74
Cc1ccc2c(c1)c1c(n2CCc2ccc(C)nc2)CN(C)CC1 = 74

Now look at this one.
Quick check: inhibition at 1 µM of CN1CCc2c(n(CC(O)c3ccccc3F)c3ccc(Cl)cc23)C1 (centres unmarked) ?
91

---

- target: human recombinant adrenergic α1D receptor (Homo sapiens)
- Construct: expressed in transfected cells; host or cells: HEK-293 cells
- Sequence (P25100 1-572): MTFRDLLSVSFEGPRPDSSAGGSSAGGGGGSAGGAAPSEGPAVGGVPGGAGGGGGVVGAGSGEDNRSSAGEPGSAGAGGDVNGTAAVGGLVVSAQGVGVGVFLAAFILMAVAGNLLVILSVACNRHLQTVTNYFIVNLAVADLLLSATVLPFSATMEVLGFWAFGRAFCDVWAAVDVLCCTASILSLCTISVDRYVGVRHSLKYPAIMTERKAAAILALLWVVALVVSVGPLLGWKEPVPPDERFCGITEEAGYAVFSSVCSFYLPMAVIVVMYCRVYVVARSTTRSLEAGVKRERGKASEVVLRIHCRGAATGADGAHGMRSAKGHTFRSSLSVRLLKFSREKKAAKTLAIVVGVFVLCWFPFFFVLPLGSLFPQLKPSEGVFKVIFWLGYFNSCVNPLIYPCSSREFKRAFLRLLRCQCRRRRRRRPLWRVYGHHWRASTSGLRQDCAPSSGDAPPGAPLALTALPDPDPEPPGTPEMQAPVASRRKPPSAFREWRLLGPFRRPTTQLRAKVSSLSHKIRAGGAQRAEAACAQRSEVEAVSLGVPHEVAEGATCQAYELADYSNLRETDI
- protocol: Adrenergic α1D radioligand binding ([3H]Prozosin)
- measurement-parameters: 1 h; read-out: Percent Inhibition of ligand binding Adrenergic (1 μM ligand conc.) α1D
Kind request: treat 60% as inclusive, so inhibition at 1 µM at 60% or higher is Criterion met, anything lower is Criterion not met.

Consider the following illustrative entries.
Cc1ccc2c(c1)c1c(n2/C=C/c2ccccc2)CN(C)CC1 [Compound 92] = Criterion met
COC(=O)Cn1c2c(c3cc(C)ccc31)CCN(C)C2 [Compound 21] = Criterion not met
C/C(=C\n1c2c(c3cc(Cl)ccc31)CCN(C)C2C)c1ccc(Cl)cc1 (stereo not shown) [Compound 99] = Criterion not met
Cc1ccc(CCn2c3c(c4cc(Cl)ccc42)CCN(C)C3C)cn1 (stereo not shown) [Compound 80] = Criterion met
Cc1ccc2c(c1)c1c(n2CCC(=O)N2CCCCC2)CN(C)CC1 [Compound 43] = Criterion not met

Answer whether inhibition at 1 µM of CCC1c2c(c3cc(C)ccc3n2C(=O)Cc2ccc(F)cc2)CCN1C (stereo not shown) [Compound 159] is greater than or equal to 60%.
Criterion not met

Is it the case that C#CCn1c2c(c3cc(Cl)ccc31)CCN(C)C2 [Compound 125] has inhibition at 1 µM reaching or exceeding 60%?
Criterion met

Is inhibition at 1 µM for C/C(=C\n1c2c(c3cc(Cl)ccc31)CCN(C)C2)c1ccc(Cl)cc1 [Compound 98] at or above 60%?
Criterion not met
